Source: paper PMC7552917

Tested System: CDK4 (Homo sapiens)
Construct: Percentage values are normalized to DMSO-treated MM.1S cells and the respective loading controls; endogenous in cells; host or cells: MM.1S (human multiple myeloma)
Test Protocol: CDK4 degradation, western blot of MM.1S cells
Assay type: cell-based
Reported Conditions: MM1.S; 0.1 μM, 16 h, MM.1S cells, normalized to DMSO (100%); read-out: D CDK4: remaining CDK4 levels
Quantity Name: remaining activity at 0.1 µM (%)

[A] CC(=O)c1c(C)c2cnc(Nc3ccc(N4CCN(C(=O)CCCCOCCOCCOCCNc5cccc6c5C(=O)N(C5CCC(=O)NC5=O)C6=O)CC4)cn3)nc2n(C2CCCC2)c1=O (centres unmarked)
[B] CC(=O)c1c(C)c2cnc(Nc3ccc(N4CCN(CCCCCCCC(=O)N[C@H](C(=O)N5C[C@H](O)C[C@H]5C(=O)NCc5ccc(-c6scnc6C)cc5)C(C)(C)C)CC4)cn3)nc2n(C2CCCC2)c1=O
Exercise: Which of these two has the smaller recorded remaining activity at 0.1 µM: A or B ? Label of pick, please.
Solution: B

----------
Tested System: CDK4 (Homo sapiens, UniProt P11802)
Construct: Percentage values are normalized to DMSO-treated MM.1S cells and the respective loading controls; endogenous in cells; host or cells: MM.1S (human multiple myeloma)
Sequence (P11802 whole entry): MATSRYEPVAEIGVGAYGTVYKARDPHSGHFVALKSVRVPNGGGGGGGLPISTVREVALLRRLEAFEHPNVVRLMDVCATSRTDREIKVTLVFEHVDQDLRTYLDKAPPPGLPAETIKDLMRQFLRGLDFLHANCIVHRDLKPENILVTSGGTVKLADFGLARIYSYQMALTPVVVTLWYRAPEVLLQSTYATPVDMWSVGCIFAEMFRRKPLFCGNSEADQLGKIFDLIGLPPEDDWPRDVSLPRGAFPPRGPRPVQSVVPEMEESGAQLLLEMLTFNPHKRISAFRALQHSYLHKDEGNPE
Test Protocol: CDK4 degradation, western blot of MM.1S cells
Type: cell-based
Reported Conditions: MM1.S; 0.1 μM, 16 h, MM.1S cells, normalized to DMSO (100%); read-out: D CDK4: remaining CDK4 levels
Description: We determined the concentration of both kinases and CRBN, the latter in order to control the expression of the corresponding ligase. […] As further characteristics of CDK4/6d, the desired selectivity of CDK6 over CDK4 degradation and the unwanted influence on the IKZF1 concentration were determined. […] Next, we determined the concentration- and time-dependent activity of 11 (Fig. S2, ESI ^†). […]
Quantity Name: remaining activity at 0.1 µM (%)

The cases that follow already have their remaining activity at 0.1 µM on record.
CC(=O)c1c(C)c2cnc(Nc3ccc(N4CCN(C(=O)CCCCCOCCCCCCOCCCCCCNc5cccc6c5C(=O)N(C5CCC(=O)NC5=O)C6=O)CC4)cn3)nc2n(C2CCCC2)c1=O (centres unmarked) [compound 17] :: 86
CC(=O)c1c(C)c2cnc(Nc3ccc(N4CCN(C(=O)CCCCOCCCCCOCCCCCCNc5cccc6c5C(=O)N(C5CCC(=O)NC5=O)C6=O)CC4)cn3)nc2n(C2CCCC2)c1=O (centres unmarked) [compound 16] :: 76

[P] COc1cc(C(=O)O)ccc1NC(=O)[C@@H]1N[C@@H](CC(C)(C)C)[C@](C#N)(c2ccc(Cl)cc2F)[C@H]1c1cccc(Cl)c1F [6 (Idasanutlin), idasanutlin, reference compound]
[Q] CC(=O)c1c(C)c2cnc(Nc3ccc(N4CCN(C(=O)COCCOCCNc5cccc6c5C(=O)N(C5CCC(=O)NC5=O)C6=O)CC4)cn3)nc2n(C2CCCC2)c1=O (centres unmarked) [compound 12]
Exercise: Lower remaining activity at 0.1 µM: P or Q ? Answer with the label corresponding to your selection.
Solution: Q

----------
Tested System: IKZF1 (Homo sapiens, UniProt Q13422+Q96SW2)
Construct: endogenous in cells; host or cells: MM.1S (human multiple myeloma)
Sequence (Q13422 whole entry): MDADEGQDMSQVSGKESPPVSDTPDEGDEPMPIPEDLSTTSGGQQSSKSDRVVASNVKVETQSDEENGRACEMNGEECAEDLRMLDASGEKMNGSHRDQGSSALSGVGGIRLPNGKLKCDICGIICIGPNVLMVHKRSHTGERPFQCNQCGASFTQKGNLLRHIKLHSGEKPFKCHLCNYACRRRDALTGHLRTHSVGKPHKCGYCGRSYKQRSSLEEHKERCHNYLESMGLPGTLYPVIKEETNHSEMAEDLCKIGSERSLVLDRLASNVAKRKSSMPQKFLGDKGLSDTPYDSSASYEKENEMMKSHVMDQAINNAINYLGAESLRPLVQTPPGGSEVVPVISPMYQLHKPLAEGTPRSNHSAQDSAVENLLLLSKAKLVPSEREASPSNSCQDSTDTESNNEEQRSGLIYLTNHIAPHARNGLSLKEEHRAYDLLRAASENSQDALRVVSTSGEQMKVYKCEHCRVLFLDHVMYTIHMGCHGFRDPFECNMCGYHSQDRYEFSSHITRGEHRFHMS
Sequence (Q96SW2 whole entry): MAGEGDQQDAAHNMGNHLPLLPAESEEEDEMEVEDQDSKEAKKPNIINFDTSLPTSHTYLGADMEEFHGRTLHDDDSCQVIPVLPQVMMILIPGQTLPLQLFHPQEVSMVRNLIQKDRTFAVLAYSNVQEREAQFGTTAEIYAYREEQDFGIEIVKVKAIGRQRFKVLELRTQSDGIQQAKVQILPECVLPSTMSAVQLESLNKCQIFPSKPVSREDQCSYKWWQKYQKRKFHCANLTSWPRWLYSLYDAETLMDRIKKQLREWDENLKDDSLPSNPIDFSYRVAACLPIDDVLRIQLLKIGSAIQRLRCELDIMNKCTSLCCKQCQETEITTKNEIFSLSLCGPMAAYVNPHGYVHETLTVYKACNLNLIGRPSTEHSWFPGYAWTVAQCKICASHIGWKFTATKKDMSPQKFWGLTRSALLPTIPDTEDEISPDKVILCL
Sequence (Q16531 whole entry partner): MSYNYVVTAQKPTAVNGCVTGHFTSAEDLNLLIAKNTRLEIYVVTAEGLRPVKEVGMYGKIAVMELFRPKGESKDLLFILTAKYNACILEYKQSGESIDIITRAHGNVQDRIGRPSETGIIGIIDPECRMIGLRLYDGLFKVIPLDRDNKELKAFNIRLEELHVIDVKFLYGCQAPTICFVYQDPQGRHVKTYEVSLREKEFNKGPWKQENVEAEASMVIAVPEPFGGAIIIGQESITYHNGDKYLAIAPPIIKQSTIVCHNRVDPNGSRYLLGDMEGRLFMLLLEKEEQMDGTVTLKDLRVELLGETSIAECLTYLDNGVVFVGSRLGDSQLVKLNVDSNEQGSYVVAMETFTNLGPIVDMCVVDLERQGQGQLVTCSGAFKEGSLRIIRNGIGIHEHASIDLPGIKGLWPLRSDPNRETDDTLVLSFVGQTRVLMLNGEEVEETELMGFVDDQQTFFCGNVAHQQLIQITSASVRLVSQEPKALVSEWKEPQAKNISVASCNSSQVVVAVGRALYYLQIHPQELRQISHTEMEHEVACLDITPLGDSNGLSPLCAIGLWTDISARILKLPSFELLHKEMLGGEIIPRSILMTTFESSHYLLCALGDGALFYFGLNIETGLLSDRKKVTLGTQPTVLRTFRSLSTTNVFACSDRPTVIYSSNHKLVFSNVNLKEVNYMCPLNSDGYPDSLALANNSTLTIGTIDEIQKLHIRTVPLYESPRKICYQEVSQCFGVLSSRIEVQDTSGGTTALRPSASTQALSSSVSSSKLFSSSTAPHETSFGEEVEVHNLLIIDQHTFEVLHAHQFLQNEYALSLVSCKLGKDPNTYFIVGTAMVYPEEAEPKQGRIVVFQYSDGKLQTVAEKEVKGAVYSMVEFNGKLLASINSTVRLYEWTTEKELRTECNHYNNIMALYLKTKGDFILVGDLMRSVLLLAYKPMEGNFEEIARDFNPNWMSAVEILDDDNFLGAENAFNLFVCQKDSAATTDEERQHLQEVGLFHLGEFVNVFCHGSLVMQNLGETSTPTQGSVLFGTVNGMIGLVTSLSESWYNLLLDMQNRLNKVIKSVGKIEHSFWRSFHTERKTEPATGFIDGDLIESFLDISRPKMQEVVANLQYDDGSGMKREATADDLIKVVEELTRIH
Test Protocol: Neosubstrate IKZF1 degradation, western blot of MM.1S cells;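 also: test concentration 0.1 µM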
Assay type: cell-based
Reported Conditions: MM1.S, 16 h, normalized to DMSO (100%), read-out: D IKZF1: remaining IKZF1 levels
Quantity Name: remaining activity at 0.1 µM (%)

[a] CC(=O)c1c(C)c2cnc(Nc3ccc(N4CCN(C(=O)CCCCOCCOCCOCCNc5cccc6c5C(=O)N(C5CCC(=O)NC5=O)C6=O)CC4)cn3)nc2n(C2CCCC2)c1=O (stereo not drawn)
[b] CC(=O)c1c(C)c2cnc(Nc3ccc(N4CCN(C(=O)CCCCCOCCCCCCOCCCCCCNc5cccc6c5C(=O)N(C5CCC(=O)NC5=O)C6=O)CC4)cn3)nc2n(C2CCCC2)c1=O (stereo not drawn)
[c] CC(=O)c1c(C)c2cnc(Nc3ccc(N4CCN(C(=O)CCCCOCCCCCOCCCCCCNc5cccc6c5C(=O)N(C5CCC(=O)NC5=O)C6=O)CC4)cn3)nc2n(C2CCCC2)c1=O (stereo not drawn)
Exercise: # desc sort on remaining activity at 0.1 µM across 3 compounds As an answer, provide the labels arranged in the order called for.
Solution: b, c, a

----------
Tested System: CDK4 (Homo sapiens, UniProt P11802)
Construct: Percentage values are normalized to DMSO-treated MM.1S cells and the respective loading controls; endogenous in cells; host or cells: MM.1S (human multiple myeloma)
Test Protocol: CDK4 degradation, western blot of MM.1S cells
Assay type: cell-based
Reported Conditions: MM1.S; 0.1 μM, 16 h, MM.1S cells, normalized to DMSO (100%); read-out: D CDK4: remaining CDK4 levels
Quantity Name: remaining activity at 0.1 µM (%)

Use the examples below as a reference point.
CC(=O)c1c(C)c2cnc(Nc3ccc(N4CCN(CCOCCOCCOc5cc(-c6scnc6C)ccc5CNC(=O)[C@@H]5C[C@H](O)CN5C(=O)[C@H](C(C)C)N5Cc6ccccc6C5=O)CC4)cn3)nc2n(C2CCCC2)c1=O :: 82
CC(=O)c1c(C)c2cnc(Nc3ccc(N4CCN(C(=O)CCCCCNc5cccc6c5C(=O)N(C5CCC(=O)N(C)C5=O)C6=O)CC4)cn3)nc2n(C2CCCC2)c1=O (centres unmarked) :: 95

[I] CC(=O)c1c(C)c2cnc(Nc3ccc(N4CCN(C(=O)CCCCCOCCCCOCCCCOCCCCNc5cccc6c5C(=O)N(C5CCC(=O)NC5=O)C6=O)CC4)cn3)nc2n(C2CCCC2)c1=O (centres unmarked)
[II] Nc1cccc2c1C(=O)N(C1CCC(=O)NC1=O)C2=O (centres unmarked) [3 (POM), pomalidomide, reference compound]
Exercise: For I and II , which recorded remaining activity at 0.1 µM is lower? Respond using the label that marks the chosen record.
Solution: I

----------
Tested System: CDK6 (Homo sapiens)
Construct: Percentage values are normalized to DMSO-treated MM.1S cells and the respective loading controls; endogenous in cells; host or cells: MM.1S (human multiple myeloma)
Sequence (Q00534 whole entry): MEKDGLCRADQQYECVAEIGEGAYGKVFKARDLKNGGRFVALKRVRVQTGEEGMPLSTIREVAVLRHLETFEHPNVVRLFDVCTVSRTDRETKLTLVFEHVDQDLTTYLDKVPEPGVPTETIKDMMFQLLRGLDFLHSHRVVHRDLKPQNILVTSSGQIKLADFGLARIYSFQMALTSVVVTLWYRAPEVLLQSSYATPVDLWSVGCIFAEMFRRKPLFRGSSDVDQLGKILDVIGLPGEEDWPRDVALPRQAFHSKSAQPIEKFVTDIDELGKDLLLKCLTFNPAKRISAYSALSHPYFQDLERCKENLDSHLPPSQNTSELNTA
Test Protocol: CDK6 degradation, western blot of MM.1S cells
Type: cell-based
Reported Conditions: MM1.S; 0.1 μM, 16 h, MM.1S cells, normalized to DMSO (100%); read-out: D CDK6: remaining CDK6 levels
Quantity Name: remaining activity at 0.1 µM (%)

Here's what some known entries look like.
CC(=O)c1c(C)c2cnc(Nc3ccc(N4CCN(CCOCCOCCOCCNC(=O)COc5cccc6c5C(=O)N(C5CCC(=O)NC5=O)C6=O)CC4)cn3)nc2n(C2CCCC2)c1=O (stereo not drawn) [8 (BSJ-03-123), BSJ-03-123, reference compound] :: 5.5
CC(=O)c1c(C)c2cnc(Nc3ccc(N4CCN(CCOCCOCCOCCOc5cc(-c6scnc6C)ccc5CNC(=O)[C@@H]5C[C@@H](O)CN5C(=O)[C@H](C(C)C)N5Cc6ccccc6C5=O)CC4)cn3)nc2n(C2CCCC2)c1=O :: 69
CC(=O)c1c(C)c2cnc(Nc3ccc(N4CCN(C(=O)CCCCCOCCOCCOCCOCCOCCOCCCCCCNc5cccc6c5C(=O)N(C5CCC(=O)NC5=O)C6=O)CC4)cn3)nc2n(C2CCCC2)c1=O (stereo not drawn) :: 16

[I] CC(=O)c1c(C)c2cnc(Nc3ccc(N4CCN(C(=O)CCCCCOCCCCOCCCCOCCCCNc5cccc6c5C(=O)N(C5CCC(=O)NC5=O)C6=O)CC4)cn3)nc2n(C2CCCC2)c1=O (stereo not drawn)
[II] CC(=O)c1c(C)c2cnc(Nc3ccc(N4CCN(CCCCCCOCCCCCOCCCCC(=O)N[C@H](C(=O)N5C[C@H](O)C[C@H]5C(=O)NCc5ccc(-c6scnc6C)cc5)C(C)(C)C)CC4)cn3)nc2n(C2CCCC2)c1=O
[III] CC(=O)c1c(C)c2cnc(Nc3ccc(N4CCN(CCCCCCCC(=O)N[C@H](C(=O)N5C[C@H](O)C[C@H]5C(=O)NCc5ccc(-c6scnc6C)cc5)C(C)(C)C)CC4)cn3)nc2n(C2CCCC2)c1=O
Exercise: Order the items by recorded remaining activity at 0.1 µM; the first position goes to the largest value. Your task in answering is to list the labels in the requested order.
Solution: II, I, III

[P] CC(=O)c1c(C)c2cnc(Nc3ccc(N4CCN(C(=O)CCCCCOCCCCCCOCCCCCCNc5cccc6c5C(=O)N(C5CCC(=O)NC5=O)C6=O)CC4)cn3)nc2n(C2CCCC2)c1=O (stereo not drawn)
[Q] CC(=O)c1c(C)c2cnc(Nc3ccc(N4CCN(CCOCCOCCOc5cc(-c6scnc6C)ccc5CNC(=O)[C@@H]5C[C@@H](O)CN5C(=O)[C@@H](NC(=O)C5(F)CC5)C(C)(C)C)CC4)cn3)nc2n(C2CCCC2)c1=O
[R] Nc1cccc2c1C(=O)N(C1CCC(=O)NC1=O)C2=O (stereo not drawn) [3 (POM), pomalidomide, reference compound]
[S] CC(=O)c1c(C)c2cnc(Nc3ccc(N4CCN(C(=O)COCCOCCOCCNc5cccc6c5C(=O)N(C5CCC(=O)NC5=O)C6=O)CC4)cn3)nc2n(C2CCCC2)c1=O (stereo not drawn)
Exercise: Arrange these compounds by their remaining activity at 0.1 µM, starting with the largest number. List the labels, following the order given in the request.
Solution: R, P, S, Q
(R: 91%, P: 51%, S: 7.7%, Q: 1.4%)
